- Tested on: PIK3CA;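 note: KINOMEscan kinase panel screen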
- MEASUREMENT_CONTEXT: concentration: 1 μM, replicates: in singlicate; n = 1
QUANTITY_KIND: %Inh (%)

1. CN1c2ccc(-c3ccc(C(N)=O)cc3)cc2-c2[nH]ncc2S1(=O)=O; 0
2. CC(C)c1ccc(O)cc1Nc1ccnc2ccc(C(F)(F)F)cc12 [GW482059]; 0
3. Fc1ccc(-c2nn3cccc(F)c3c2-c2ccncc2)cc1 [GW475620]; 0
4. FC(F)(F)c1ccccc1-c1cc(-c2c[nH]nc2-c2ccccn2)ccn1 [GW679396]; 0
5. COc1nccc(-c2c(-c3ccc(F)cc3)ncn2CCCN2CCOCC2)n1 [SB-282852]; 0
6. Cn1cncc1C(=O)NC1CCN(c2ccnc(Nc3ccc(F)cc3)n2)C1 (centres unmarked) [GSK1379717]; 0
7. Nc1nccc(-c2c(-c3ccc(F)cc3)ncn2C2CCN(Cc3ccccc3)CC2)n1 [SB-219980]; 0
8. CC(=O)c1c(C)c2cnc(Nc3ccn(C)n3)nc2n(C2CCCC2)c1=O; 0
9. COC(=O)C(Cc1ccccc1)NC(=O)NC1CCN(c2ccnc(Nc3ccc(F)cc3)n2)C1 (centres unmarked) [GSK1379714]; 0
10. COc1cccc(NC(=O)Nc2ccc(C)c(-c3ccc(C(=O)Nc4ccncc4)cc3)c2)c1 [GSK1398474]; 99.9
11. Cc1ccc(NC(=O)Nc2ccc(Cl)cc2)cc1-c1ccc(C(=O)Nc2ccncc2)cc1 [GSK1398472]; 0
12. COc1ccc(Nc2nccc(N3CCC(NC(=O)C(C)c4ccc(Cl)cc4)CC3)n2)cc1 (centres unmarked) [GSK1379812]; 21
13. CC[C@@H]1CO[C@H](C(=O)Nc2ccccc2)CN1c1cc(-c2ccc3c(N)n[nH]c3c2)nc(NC)n1 [GSK2376236]; 0
14. CNCc1ccc2nc(NC(=O)c3ccc(C(C)(C)C)cc3)cn2c1; 89
15. Fc1ccc(-c2nc3n(c2-c2ccncc2)CCS3)cc1 [GI98581]; 91.9
16. COC(=O)c1cccc(NC(=O)NC2CCN(c3ccnc(Nc4ccc(OC)cc4)n3)C2)c1 (centres unmarked) [GSK1379746]; 0
17. Cc1c(Cn2c3ccccc3n3c(=O)cc(N4CCOCC4)nc23)cccc1C(F)(F)F [GSK2306394]; 1
18. CNC(=O)c1ccc(C)c(-n2c(C)cc(OCc3ccc(F)cc3F)c(Br)c2=O)c1; 0
19. COC(=O)C(NC(=O)NC1CCN(c2ccnc(Nc3ccc(F)cc3)n2)C1)c1ccccc1 (centres unmarked) [GSK1379712]; 1
20. CNc1nc(-c2ccc3c(N)n[nH]c3c2)cc(N2C[C@@H](C(=O)NC3CCCCC3)OC[C@H]2C)n1 [GSK2375584]; 4
21. CC(=O)c1c(C)c2cnc(Nc3ccc(N4CCNCC4)cn3)nc2n(C2CCCC2)c1=O; 3
22. O=c1cc(N2CCOCC2)nc2n(Cc3cccc(Cl)c3Cl)c3ccccc3n12 [GSK2299009]; 7
23. COc1cccc(C2=C(Nc3cc(Cl)c(O)c(Cl)c3)C(=O)NC2=O)c1 [SB-390767]; 0
24. CS(=O)(=O)CCNCc1nc(-c2ccc3ncnc(Nc4ccc(OCc5ccccc5)c(Cl)c4)c3c2)cs1.Cl [GW582764]; 0
25. Cc1c(Cn2c(C)c(C)n3c(=O)cc(N4CCOCC4)nc23)cccc1C(F)(F)F [GSK2328680]; 20
26. CCc1ccc(-c2ccc3c(c2)-c2n[nH]cc2S(=O)(=O)N3C)cc1; 0
27. Cc1ccc(NC(=O)Nc2ccccc2F)cc1-c1ccc(C(=O)Nc2ccncc2)cc1 [GSK1398477]; 0
28. CC(C)c1cc(-c2ccc3c(N)n[nH]c3c2)nc(N)n1 [GSK2250882]; 0
29. O=C1NC(=O)C(c2ccc(Cl)cc2)=C1Nc1cccc(Cl)c1 [SB-317651]; 9
30. CC(=O)c1cccc(NC(=O)NC2CCN(c3ccnc(Nc4ccc(F)cc4)n3)C2)c1 (centres unmarked) [GSK1379710]; 0
31. CNc1cc(-c2ccc3c(N)n[nH]c3c2)nc(N)n1 [GSK2224810]; 0
32. Cc1ccccc1Cn1ccn2c(=O)cc(N3CCOCC3)nc12 [GSK2269905]; 0
33. CS(=O)(=O)Cc1ccc(Nc2nccc(-c3c(-c4cccc(NC(=O)C5CCCCC5)c4)nn4ncccc34)n2)cc1 [GSK350559]; 12
34. COc1ccc(Nc2nccc(NCCNC(=O)Nc3cc(C)ccc3C)n2)cc1 [GSK1379899]; 86
35. Cc1nccc(-c2c(-c3ccc(F)cc3)ncn2CCCN2CCOCC2)n1.Cl [SB-282975]; 0
